Experiment: Cytotoxicity against human HOP62 cells
Type: cell-based
Conditions: HOP-62 cells
// values below are reported GI50
measure: GI50 (µM)

CC(C)(C)OC(=O)NCCCCCCCCCCn1c2c(c3ccccc3c1=O)C(=O)c1ccccc1-2 = 28.8
CC(C)(C)OC(=O)NCCCCCCCCCn1c2c(c3ccccc3c1=O)C(=O)c1ccccc1-2 = 24.5
NCCCCCCCCCn1c2c(c3ccccc3c1=O)C(=O)c1ccccc1-2 = 6.76
NCCCCn1c2c(c3ccccc3c1=O)C(=O)c1ccccc1-2 = 0.08
NCCCCCn1c2c(c3ccccc3c1=O)C(=O)c1ccccc1-2 = 0.288
CC(C)(C)OC(=O)NCCCCCCCCCCCn1c2c(c3ccccc3c1=O)C(=O)c1ccccc1-2 = 20.9
NCCCCCCCCCCn1c2c(c3ccccc3c1=O)C(=O)c1ccccc1-2 = 4.79

* * *

Assay: Cytotoxicity against human […] cells
Type: cell-based
measure: GI50 (µM)

O=C1c2ccccc2-c2c1c1ccccc1c(=O)n2Cc1ccccn1 = 3.09
NCCCCCCCCCCn1c2c(c3ccccc3c1=O)C(=O)c1ccccc1-2 = 11.7
NCCCCCn1c2c(c3ccccc3c1=O)C(=O)c1ccccc1-2 = 1.35
NCCCCCCCCCCCCn1c2c(c3ccccc3c1=O)C(=O)c1ccccc1-2 = 19.5
NCCCCCCCn1c2c(c3ccccc3c1=O)C(=O)c1ccccc1-2 = 2.24
O=C1c2ccccc2-c2c1c1ccccc1c(=O)n2Cc1cccnc1 = 42.7
COc1cc2c3c(n(CCCNCCNCCN)c(=O)c2cc1OC)-c1cc2c(cc1C3=O)OCO2 = 2.7
NCCn1c2c(c3ccccc3c1=O)C(=O)c1ccccc1-2 = 0.92
NCCCn1c2c(c3ccccc3c1=O)C(=O)c1ccccc1-2 = 0.78
NCCCCCCCCCCCn1c2c(c3ccccc3c1=O)C(=O)c1ccccc1-2 = 11
NCCCCn1c2c(c3ccccc3c1=O)C(=O)c1ccccc1-2 = 0.84
CC(C)(C)OC(=O)NCCCCCCCn1c2c(c3ccccc3c1=O)C(=O)c1ccccc1-2 = 81.3
COc1cc2c3c(n(CCCNCCCNCCN)c(=O)c2cc1OC)-c1cc2c(cc1C3=O)OCO2 = 38
COc1cc2c3c(n(C)c(=O)c2cc1OC)-c1cc2c(cc1C3=O)OCO2 = 96
O=C1c2ccccc2-c2c1c1ccccc1c(=O)n2CCc1ccccn1 = 5.13

* * *

Experiment: Cytotoxicity against human HOP62 cells
Type: cell-based
Conditions: HOP-62 cells
// values below are reported GI50
measure: GI50 (nM)

COc1cc2c3c(n(CCCNCCNCCCN)c(=O)c2cc1OC)-c1cc2c(cc1C3=O)OCO2 = 2900
NCCn1c2c(c3ccccc3c1=O)C(=O)c1ccccc1-2 = 620
NCCCCCCCCCCCn1c2c(c3ccccc3c1=O)C(=O)c1ccccc1-2 = 2190
O=C1c2ccccc2-c2c1c1ccccc1c(=O)n2Cc1ccccn1 = 11200
COc1cc2c3c(n(CCCNCCNCCN)c(=O)c2cc1OC)-c1cc2c(cc1C3=O)OCO2 = 2800

* * *

// values below are reported GI50
Experiment: Cytotoxicity against human HOP62 cells
Type: cell-based
Conditions: HOP-62 cells
measure: GI50 (µM)

O=C1c2ccccc2-c2c1c1ccccc1c(=O)n2CCc1ccccn1 = 21.4
NCCCCCCCCn1c2c(c3ccccc3c1=O)C(=O)c1ccccc1-2 = 2.14
CC(C)(C)OC(=O)NCCCCCCCCCCCCn1c2c(c3ccccc3c1=O)C(=O)c1ccccc1-2 = 32.4
NCCCn1c2c(c3ccccc3c1=O)C(=O)c1ccccc1-2 = 0.2
NCCCCCCCCCCCCn1c2c(c3ccccc3c1=O)C(=O)c1ccccc1-2 = 17
CC(C)(C)OC(=O)NCCCCCCCCn1c2c(c3ccccc3c1=O)C(=O)c1ccccc1-2 = 10.7
O=C1c2ccccc2-c2c1c1ccccc1c(=O)n2CCc1cccnc1 = 28.8
NCCCCCCCn1c2c(c3ccccc3c1=O)C(=O)c1ccccc1-2 = 1.2
NCCCCCCn1c2c(c3ccccc3c1=O)C(=O)c1ccccc1-2 = 1.29
O=C1c2ccccc2-c2c1c1ccccc1c(=O)n2Cc1cccnc1 = 7.59
Nn1c2c(c3ccccc3c1=O)C(=O)c1ccccc1-2 = 24.5

* * *

Test: Cytotoxicity against human SN12C cells
Assay type: cell-based
// values below are reported GI50
measure: GI50 (µM)

COc1cc2c3c(n(CCCNCCCNCCN)c(=O)c2cc1OC)-c1cc2c(cc1C3=O)OCO2 = 20
NCCCCCCCCCCCn1c2c(c3ccccc3c1=O)C(=O)c1ccccc1-2 = 2
COc1cc2c3c(n(CCCNCCCNCCCN)c(=O)c2cc1OC)-c1cc2c(cc1C3=O)OCO2 = 33
NCCCCCCCCn1c2c(c3ccccc3c1=O)C(=O)c1ccccc1-2 = 3.47
COc1cc2c3c(n(CCCNCCNCCCN)c(=O)c2cc1OC)-c1cc2c(cc1C3=O)OCO2 = 1.7
O=C1c2ccccc2-c2c1c1ccccc1c(=O)n2CCc1ccccn1 = 77.6
NCCCn1c2c(c3ccccc3c1=O)C(=O)c1ccccc1-2 = 0.16
COc1cc2c3c(n(CCCNCCNCCN)c(=O)c2cc1OC)-c1cc2c(cc1C3=O)OCO2 = 2.5

* * *

Assay: Cytotoxicity against human OVCAR-3 cells
Type: cell-based
measure: GI50 (nM)

NCCn1c2c(c3ccccc3c1=O)C(=O)c1ccccc1-2 = 710
COc1cc2c3c(n(CCCNCCCNCCN)c(=O)c2cc1OC)-c1cc2c(cc1C3=O)OCO2 = 20000
COc1cc2c3c(n(CCCNCCCNCCCN)c(=O)c2cc1OC)-c1cc2c(cc1C3=O)OCO2 = 880

* * *

Experiment: Cytotoxicity against human OVCAR-3 cells
Assay type: cell-based
// values below are reported GI50
measure: GI50

Nn1c2c(c3ccccc3c1=O)C(=O)c1ccccc1-2 = > 50.1 µM
O=C1c2ccccc2-c2c1c1ccccc1c(=O)n2CCc1cccnc1 = > 100 µM
CC(C)(C)OC(=O)NCCCCCCCCCCCCn1c2c(c3ccccc3c1=O)C(=O)c1ccccc1-2 = > 100 µM

* * *

Test: Cytotoxicity against human HCT116 cells
Format: cell-based
Settings: HCT-116 cells
// values below are reported GI50
measure: GI50 (µM)

CC(C)(C)OC(=O)NCCCCCCCCCCCn1c2c(c3ccccc3c1=O)C(=O)c1ccccc1-2 = 35.5
COc1cc2c3c(n(CCCNCCNCCN)c(=O)c2cc1OC)-c1cc2c(cc1C3=O)OCO2 = 0.9
NCCCCCn1c2c(c3ccccc3c1=O)C(=O)c1ccccc1-2 = 0.2
NCCCCCCCn1c2c(c3ccccc3c1=O)C(=O)c1ccccc1-2 = 1.26
CC(C)(C)OC(=O)NCCCCCCCn1c2c(c3ccccc3c1=O)C(=O)c1ccccc1-2 = 17.4
NCCCCCCCCCCCn1c2c(c3ccccc3c1=O)C(=O)c1ccccc1-2 = 1.91
COc1cc2c3c(n(CCCNCCNCCCN)c(=O)c2cc1OC)-c1cc2c(cc1C3=O)OCO2 = 1.3
CC(C)(C)OC(=O)NCCCCCCCCCCn1c2c(c3ccccc3c1=O)C(=O)c1ccccc1-2 = 60.3
COc1cc2c3c(n(CCCNCCCNCCCN)c(=O)c2cc1OC)-c1cc2c(cc1C3=O)OCO2 = 43
COc1cc2c3c(n(CCCNCCCNCCN)c(=O)c2cc1OC)-c1cc2c(cc1C3=O)OCO2 = 23
NCCn1c2c(c3ccccc3c1=O)C(=O)c1ccccc1-2 = 0.27

* * *

Test: Cytotoxicity against human […] cells
Type: cell-based
measure: GI50

CC(C)(C)OC(=O)NCCCCCCCCCCCn1c2c(c3ccccc3c1=O)C(=O)c1ccccc1-2 = > 100 µM
CC(C)(C)OC(=O)NCCCCCCCCCCn1c2c(c3ccccc3c1=O)C(=O)c1ccccc1-2 = > 100 µM
CC(C)(C)OC(=O)NCCCCCCCCCn1c2c(c3ccccc3c1=O)C(=O)c1ccccc1-2 = > 100 µM
Nn1c2c(c3ccccc3c1=O)C(=O)c1ccccc1-2 = > 50.1 µM
CC(C)(C)OC(=O)NCCCCCCCCCCCCn1c2c(c3ccccc3c1=O)C(=O)c1ccccc1-2 = > 100 µM
CC(C)(C)OC(=O)NCCCCCCCCn1c2c(c3ccccc3c1=O)C(=O)c1ccccc1-2 = > 50.1 µM
